All figures here come from ChEMBL document CHEMBL3865836.

Test: Cytotoxicity against human HeLa cells by trypan blue dye exclusion method
Assay type: functional, cell-based
Value Type: pIC50
Answers are plain numbers, as −log10 of the molar value.

QUERY: Using known records, supply pIC50 for `O=C1C=CC[C@H]([C@@H](O)[C@H](O)c2ccccc2)O1`
RESULT: 4.89
